Data provenance is patent US9284325B2.

Reported MIC values are given for each entry in this list.
# System: P. aeruginosa PAO1
# Assay Name: MIC determination by microbroth dilution
# Assay type: cell-based, Pseudomonas aeruginosa
# Condition Parameters: Pseudomonas aeruginosa
Counter-ions that a name gives are not always drawn.

[
  {
    "Molecule": "CN[C@@H]1[C@H](O)[C@H](NC)C2O[C@]3(O)C(OC2[C@H]1O)O[C@H](C)C[C@H]3NC(=O)[C@H](C)N (stereo partly shown) [Compound 1467, Trihydrochloride]",
    "MIC": "> 200 µg/mL"
  },
  {
    "Molecule": "CN[C@@H]1[C@H](O)[C@H](NC)C2O[C@]3(O)C(OC2[C@H]1O)O[C@H](C)C[C@H]3NC(=O)Cc1ccc(-c2ccccc2)cn1 (stereo partly shown) [Compound 1519, trihydrobromide]",
    "MIC": "> 200 µg/mL"
  },
  {
    "Molecule": "CN[C@@H]1[C@H](O)[C@H](NC)C2O[C@]3(O)C(OC2[C@H]1O)O[C@H](C)C[C@H]3NC(=O)C(c1ccccc1)c1ccccc1 (stereo partly shown) [Compound 1514, dihydrochloride]",
    "MIC": "> 200 µg/mL"
  },
  {
    "Molecule": "CN[C@@H]1[C@H](O)[C@H](NC)C2O[C@]3(O)C(OC2[C@H]1O)O[C@H](C)C[C@H]3NC(=O)Cc1csc(Nc2cccc(F)c2)n1 (stereo partly shown)",
    "MIC": "> 200 µg/mL"
  },
  {
    "Molecule": "CN[C@@H]1[C@H](O)[C@H](NC)C2O[C@]3(O)C(OC2[C@H]1O)O[C@H](C)C[C@H]3NC(=O)CC(C)C (stereo partly shown) [Compound 1369, Dihydrochloride]",
    "MIC": "> 200 µg/mL"
  }
]

Q: Find the recorded MIC belonging to CN[C@@H]1[C@H](O)[C@H](NC)C2O[C@]3(O)C(OC2[C@H]1O)O[C@H](C)C[C@H]3NC(=O)Cc1cn(Cc2ccccc2)nn1 (stereo partly shown) and report it.
Ans: > 200 µg/mL

Q: # get_value(readout='MIC', item= CN[C@@H]1[C@H](O)[C@H](NC)C2O[C@]3(O)C(OC2[C@H]1O)O[C@H](C)C[C@H]3NCc1cccc(OC)c1 (stereo partly shown) [Compound 1423, Trihydrochloride] )
Ans: > 200 µg/mL

Q: I am curious: what MIC value has been reported for CN[C@@H]1[C@H](O)[C@H](NC)C2O[C@]3(O)C(OC2[C@H]1O)O[C@H](C)C[C@H]3NC(=O)[C@@H](N)Cc1ccccc1 (stereo partly shown) [Compound 1515, Trihydrochloride] ?
Ans: > 200 µg/mL

Q: Given CN[C@@H]1[C@H](O)[C@H](NC)C2O[C@]3(O)C(OC2[C@H]1O)O[C@H](C)C[C@H]3NC(=O)[C@@H](N)C(C)C (stereo partly shown) [Compound 1486, Trihydrochloride] , state its recorded MIC.
Ans: > 200 µg/mL

Q: Using the record for CN[C@@H]1[C@H](O)[C@H](NC)C2O[C@]3(O)C(OC2[C@H]1O)O[C@H](C)C[C@H]3NC(=O)c1ccco1 (stereo partly shown) [Compound 1365, Dihydrochloride] , report its MIC.
Ans: > 200 µg/mL

Q: Look up MIC: CN[C@@H]1[C@H](O)[C@H](NC)C2O[C@]3(O)C(OC2[C@H]1O)O[C@H](C)C[C@H]3NC(=O)CCc1ccccn1 (stereo partly shown) [Compound 1518, trihydrobromide]
Ans: > 200 µg/mL

Q: Need MIC, item CN[C@@H]1[C@H](O)[C@H](NC)C2O[C@]3(O)C(OC2[C@H]1O)O[C@H](C)C[C@H]3NC(=O)Cc1ccc(-c2ccc(F)cc2)cn1 (stereo partly shown)
Ans: > 200 µg/mL

Q: I would be grateful if you could share the reported MIC for CN[C@@H]1[C@H](O)[C@H](NC)C2O[C@]3(O)C(OC2[C@H]1O)O[C@H](C)C[C@H]3NC(=O)[C@H](Cc1ccccc1)NC(=O)CN (stereo partly shown) [Compound 1502, Trihydrochloride] .
Ans: > 200 µg/mL

Q: Returns the measured MIC for the input molecule. Input: CN[C@@H]1[C@H](O)[C@H](NC)C2O[C@]3(O)C(OC2[C@H]1O)O[C@H](C)C[C@H]3NC(=O)Cc1nc2ccccc2o1 (stereo partly shown) [Compound 1465, trihydrobromide]
Ans: > 200 µg/mL

Q: Need MIC of CN[C@@H]1[C@H](O)[C@H](NC)C2O[C@]3(O)C(OC2[C@H]1O)O[C@H](C)C[C@H]3NC(=O)Cc1ccccn1 (stereo partly shown) [Compound 1329, Dihydrochloride] , thanks.
Ans: 100 µg/mL

Q: Query: MIC; subject: CN[C@@H]1[C@H](O)[C@H](NC)C2O[C@]3(O)C(OC2[C@H]1O)O[C@H](C)C[C@H]3NC(=O)Cc1nccs1 (stereo partly shown)
Ans: > 200 µg/mL

Q: If you can, please state the reported MIC value of CN[C@@H]1[C@H](O)[C@H](NC)C2O[C@]3(O)C(OC2[C@H]1O)O[C@H](C)C[C@H]3NC(=O)Cc1csc(-c2ccccc2)n1 (stereo partly shown) [Compound 1517, trihydrobromide] .
Ans: > 200 µg/mL

Q: Using the record for CN[C@@H]1[C@H](O)[C@H](NC)C2O[C@]3(O)C(OC2[C@H]1O)O[C@H](C)C[C@H]3NC(=O)Cc1csc(Nc2ccc(OC(F)(F)F)cc2)n1 (stereo partly shown) , report its MIC.
Ans: 25 µg/mL

Q: Consider the molecule CN[C@@H]1[C@H](O)[C@H](NC)C2O[C@]3(O)C(OC2[C@H]1O)O[C@H](C)C[C@H]3NC(=O)Cc1ccc(Br)cn1 (stereo partly shown) [Compound 1516, trihydrobromide] and give its measured MIC.
Ans: > 200 µg/mL

Q: What measured MIC goes with CN[C@@H]1[C@H](O)[C@H](NC)C2O[C@]3(O)C(OC2[C@H]1O)O[C@H](C)C[C@H]3NC(=O)Cc1csc(Nc2ccc(C(F)(F)F)cc2)n1 (stereo partly shown) ?
Ans: 25 µg/mL

Q: Consider the molecule CN[C@@H]1[C@H](O)[C@H](NC)C2O[C@]3(O)C(OC2[C@H]1O)O[C@H](C)C[C@H]3NC(=O)Cc1cccc(OC)c1 (stereo partly shown) [Compound 1400, Dihydrochloride] and give its measured MIC.
Ans: 100 µg/mL

Q: # input molecule: CN[C@@H]1[C@H](O)[C@H](NC)C2O[C@]3(O)C(OC2[C@H]1O)O[C@H](C)C[C@H]3NC(=O)c1cccc2cccnc12 (stereo partly shown) [Compound 1536, trihydrobromide] ; wanted: its MIC
Ans: > 200 µg/mL
